Target: Gal4DBD/AaEcR (DEF) (Aedes aegypti, UniProt P49880)
Construct: The wildtype D, E, and F domains from mosquito Aedes aegypti EcR; expressed in transfected cells; host or cells: 3T3 cells
Sequence (P28704 286-520 A311G/G315S/G445S/I449V): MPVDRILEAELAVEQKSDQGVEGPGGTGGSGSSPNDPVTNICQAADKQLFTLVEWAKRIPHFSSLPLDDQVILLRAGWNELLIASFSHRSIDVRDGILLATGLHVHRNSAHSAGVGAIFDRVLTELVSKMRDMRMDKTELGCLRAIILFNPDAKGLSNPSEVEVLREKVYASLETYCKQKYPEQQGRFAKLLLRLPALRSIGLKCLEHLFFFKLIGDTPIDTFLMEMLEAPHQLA
Sequence (P49880 405-776): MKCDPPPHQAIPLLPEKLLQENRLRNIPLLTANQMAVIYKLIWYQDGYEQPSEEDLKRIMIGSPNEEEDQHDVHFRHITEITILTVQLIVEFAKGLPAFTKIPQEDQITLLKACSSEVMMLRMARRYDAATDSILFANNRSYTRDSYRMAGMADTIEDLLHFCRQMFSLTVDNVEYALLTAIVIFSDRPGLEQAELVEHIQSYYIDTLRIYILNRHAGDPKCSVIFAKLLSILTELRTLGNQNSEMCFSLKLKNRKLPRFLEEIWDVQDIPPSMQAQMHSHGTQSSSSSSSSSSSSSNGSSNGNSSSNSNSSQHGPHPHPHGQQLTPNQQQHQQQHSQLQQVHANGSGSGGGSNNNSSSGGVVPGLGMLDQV
Experiment: cell-based
Assay type: cell-based
Conditions: NIH3T3, read-out: Fold Induction Average, AA_3T3V1 Assay 33 μM
Reported Endpoint: fold induction at 33 µM
One number for each entry.

Cc1ccc(NC(=O)N2c3ccccc3[C@@H](Nc3ccccc3)C[C@H]2C)cc1 (relative stereo)	820
C[C@@H]1C[C@H](Nc2ccc(F)cc2)c2cc(F)ccc2N1C(=O)c1ccc(F)c(Cl)c1 (relative stereo)	357
C[C@H]1C[C@H](Nc2ccc(F)cc2)c2cc(F)ccc2N1C(=O)c1ccc(F)c(Cl)c1 (relative stereo)	86

Shift focus to the following entry.
// query Name the recorded fold induction at 33 µM of COc1ccc(C(=O)N2c3ccc(C)cc3[C@@H](Nc3ccc(C)cc3)C[C@H]2C)cc1 (stereo in doubt) , assay system Gal4DBD/AaEcR (DEF) (Aedes aegypti, UniProt P49880).
// result 1
